target: Aβ1-40 peptide (monomeric start material of the nucleation assay); assay: cell-based or functional assay
Square brackets hold non-standard residues; d marks the D form. * marks the point of attachment. NHiPr = CC(C)N*
assay-readout: Nucleation assay Δ lag at 2.5 µM compound

- H-[dL][dV][dF][dF][dA]-NHiPr (also: TFA salt) [PPI-992: TFA • H-(lvffa)-isopropylamide]: 1 ratio of lag time to control
- {N,N‑diethyl}-[dA][dF][dF][dV][dL]-NH2 (also: TFA salt) [PPI-1006: TFA • N,N-diethyl-(affvl)-NH2]: 1 ratio of lag time to control
- {N,N‑dimethyl}-G[dA][dF][dF][dV][dL]-NH2 (also: TFA salt) [PPI-803: TFA • N,N-dimethyl-(Gaffvl)-NH2]: < 1 ratio of lag time to control
